- Tested on: OVCAR-3 ovarian
- measurement_notes: NCI-60 one-dose screen, 48 h (100 = growth as untreated, 0 = no growth, -100 = all killed)
- condition_info: 10 µM
About 83,000 compounds went through this panel and 20% of them were active in at least one assay; those are over-represented in the sample as a whole.
endpoint_label: growth (%)
All answers are understood in %, so give the number only.

# input Give recorded growth. Cc1ccncc1C(N)=O
# output 90.6

# input Give recorded growth. Cc1nc2ccccc2c2nnc(SCC(=O)N(Cc3ccccc3)c3ccccc3)n12
# output 93.4

# input Give recorded growth. CN(C)c1ccc2oc(=O)c3ccccc3c2c1
# output 103

# input Give recorded growth. CCCCOC(OCCCC)c1ccccc1
# output 105

# input Give recorded growth. C=CCc1cc(C(C)=O)cc(OC)c1O
# output 106

# input Give recorded growth. O=[N+]([O-])c1ccc(Cl)c(S(=O)(=O)O)c1
# output 106

# input Give recorded growth. Cc1ccc(CCCC(=O)O)c(C)c1
# output 108

# input Give recorded growth. C/C(=N\O)C1(O)CCCCC1
# output 94.7

---

- System: HCT-116 colon
- measurement_notes: NCI-60 one-dose screen, 48 h (100 = growth as untreated, 0 = no growth, -100 = all killed)
- condition_info: 10 µM
This is part of a sample that, as a whole, favours compounds with a hit. Of some 83,000 tested, about 20% had one in any assay. Calls of active or inactive are those of the source. How the source made its calls: active means growth percent below 10; inactive means the rest.
I'd be grateful if you could share measured growth for these entries.

# input // output growth; input CCOc1ccc(/C=N/N=C(N)N)cc1OCC ; system HCT-116 colon
# output 95.8% (inactive)

# input // output growth; input Cn1cnc2nc(Cl)nc(Cl)c21 ; system HCT-116 colon
# output 3.41% (active)

# input // output growth; input CC(C)CCOC(=O)c1ccccc1 ; system HCT-116 colon
# output 103% (inactive)

---

- System: SW-620 colon
- measurement_notes: NCI-60 one-dose screen, 48 h (100 = growth as untreated, 0 = no growth, -100 = all killed)
- condition_info: 10 µM
This is part of a sample that, as a whole, favours compounds with a hit. Of some 83,000 tested, about 20% had one in any assay.
I'd be grateful if you could share measured growth for these entries.
All answers are understood in %, so give the number only.

# input Give recorded growth. O=C1Cc2cc(O)ccc2O1
# output 113

# input Give recorded growth. c1cc[n+](C2c3ccccc3C([n+]3ccccc3)c3ccccc32)cc1 (centres undefined)
# output 69.8

# input Give recorded growth. Clc1ccc(-c2n[nH]c3c2Cc2ccccc2-3)cc1Cl
# output 111

# input Give recorded growth. NC(=S)CN1CCOCC1
# output 103

# input Give recorded growth. CC(=O)c1c[nH]c2ccccc12
# output 105

# input Give recorded growth. CC1=NN(c2ccccc2)C(=O)/C1=C\N1CC(=O)NC1=S
# output 106

# input Give recorded growth. CC(C(=O)O)(C1CCCCC1)C1(O)CCCCC1 (centres undefined)
# output 105

# input Give recorded growth. CCCCC(=O)c1ccc(OC)cc1
# output 101

# input Give recorded growth. O=C(Cc1nc2ccc([N+](=O)[O-])cc2nc1CC(=O)c1ccccc1)c1ccccc1
# output 62.6

---

- System: SF-539 CNS
- measurement_notes: NCI-60 one-dose screen, 48 h (100 = growth as untreated, 0 = no growth, -100 = all killed)
- condition_info: 10 µM
About 83,000 compounds went through this panel and 20% of them were active in at least one assay; those are over-represented in the sample as a whole.
endpoint_label: growth (%)
All answers are understood in %, so give the number only.

# input Give recorded growth. Nc1ccc(N)c([N+](=O)[O-])c1
# output 94.9

# input Give recorded growth. CN(C)c1nc2c([nH]1)c(=O)n(C)c(=O)n2C
# output 107

# input Give recorded growth. Cc1cc2nc(CC(=O)c3ccccc3)c(=O)[nH]c2cc1C
# output 95.6

# input Give recorded growth. CCOC(=O)C(=O)C=P(c1ccccc1)(c1ccccc1)c1ccccc1
# output 103

# input Give recorded growth. c1ccc(CN2COc3c(ccc4c3OCN(Cc3ccccc3)C4)C2)cc1
# output -21.5

# input Give recorded growth. COc1cc(CN)ccc1O
# output 94.9

# input Give recorded growth. CNc1nc(NC)c2cn[nH]c2n1
# output 103

# input Give recorded growth. O=C(Cc1nc2ccc([N+](=O)[O-])cc2nc1CC(=O)c1cccnc1)c1cccnc1
# output 30.1

# input Give recorded growth. Cc1cccc(CO)c1
# output 108

# input Give recorded growth. O=C(O)c1cccc([N+](=O)[O-])c1O
# output 114

# input Give recorded growth. Oc1ccccc1-c1nnco1
# output 89.9

# input Give recorded growth. O=C(CN1CCNCC1)N1CCOCC1
# output 99.5

# input Give recorded growth. CCNCCCCNCCCCNCCCCNCCCCNCC
# output 122

# input Give recorded growth. c1ccc(Sc2ccccc2)cc1
# output 103

# input Give recorded growth. N#CCCN(CCCN1CCOCC1)CN1C(=O)c2ccccc2C1=O
# output 110

# input Give recorded growth. C/C=C/CC(C)C(O)C1C(=O)NC(CC)C(=O)N(C)CC(=O)N(C)C(CC(C)C)C(=O)NC(C(C)C)C(=O)N(C)C(CC(C)C)C(=O)NC(C)C(=O)NC(C)C(=O)N(C)C(CC(C)C)C(=O)N(C)C(CC(C)C)C(=O)N(C)C(C(C)C)C(=O)N1C (stereo not drawn)
# output -1.51

# input Give recorded growth. O=C(Cc1nc2ccc([N+](=O)[O-])cc2nc1CC(=O)c1ccccc1)c1ccccc1
# output 18.3

# input Give recorded growth. Oc1ccccc1O
# output 84.1

---

- Test system: A549/ATCC NSCLC
- measurement_notes: NCI-60 one-dose screen, 48 h (100 = growth as untreated, 0 = no growth, -100 = all killed)
- condition_info: 10 µM
This is part of a sample that, as a whole, favours compounds with a hit. Of some 83,000 tested, about 20% had one in any assay.
I'd be grateful if you could share measured growth for these entries.
All answers are understood in %, so give the number only.

# input Give recorded growth. COc1cc2cc(c1Cl)N(C)C(=O)C[C@H](OC(=O)[C@H](C)N(C)C(C)=O)[C@]1(C)O[C@H]1[C@H](C)[C@@H]1C[C@@](O)(NC(=O)O1)[C@H](OC)C=C/C=C(\C)C2
# output 38.3

# input Give recorded growth. O=C1Cc2cc(O)ccc2O1
# output 98.7

# input Give recorded growth. CC(=O)Cc1ccc(-c2ccccc2)cc1
# output 94.8

# input Give recorded growth. COc1ccc(/C(C#N)=C2C=C/C(=N/O)c3ccccc3\2)cc1
# output 11.8

---

- Tested on: COLO 205 colon
- measurement_notes: NCI-60 one-dose screen, 48 h
- condition_info: 10 µM
The panel holds about 83,000 compounds, 20% with a hit somewhere; the sample as a whole holds those more often. Active and inactive are the calls of the source. The calls were made as follows: active = growth percent below 10; inactive = the rest.
Outcome (select one): true (1) (active), false (0) (inactive)

# input For this compound, state the assay outcome: CC1=C(/C=C/C(C)=C/C=C/C(C)=C/CO)C(C)(C)CCC1
# output false (0)

# input For this compound, state the assay outcome: Cc1ccccc1N=C(c1ccccc1)C1C(=O)c2ccccc2C1=O
# output false (0)

# input For this compound, state the assay outcome: CCOc1ccccc1/C=N/Nc1nc2ccccc2o1
# output false (0)

# input For this compound, state the assay outcome: COc1cc(OC)c2ccc(=O)oc2c1
# output false (0)

# input For this compound, state the assay outcome: Cc1cc(N)ccc1-c1ccc(N)cc1C
# output false (0)

# input For this compound, state the assay outcome: CC(=O)c1sc2c(c1OC(=O)c1ccc(Cl)cc1Cl)c(=O)n(-c1ccccc1)c(=S)n2-c1ccccc1
# output true (1)

# input For this compound, state the assay outcome: COc1ccc(Oc2c(I)cc(CC(NC(C)=O)C(=O)O)cc2I)cc1 (stereo not given)
# output false (0)

# input For this compound, state the assay outcome: O=S(=O)(O)CC(O)CN1CCN(CCO)CC1 (stereo not given)
# output false (0)

# input For this compound, state the assay outcome: CCS(=O)(=O)c1cc(=O)[nH]c(=O)[nH]1
# output false (0)

# input For this compound, state the assay outcome: Cc1nc2c(ccc3ccccc32)s1
# output false (0)

# input For this compound, state the assay outcome: O=C(O)C(Cc1ccccc1)C(=O)O
# output false (0)

# input For this compound, state the assay outcome: O=C1Cc2ccccc2C(=O)O1
# output false (0)

# input For this compound, state the assay outcome: CCOC(=O)CCCS(C)(=O)=O
# output false (0)

# input For this compound, state the assay outcome: C#CCSc1nnnn1-c1ccc(Br)c(C)c1
# output false (0)

# input For this compound, state the assay outcome: COC(=O)C(O)c1ccccc1 (stereo not given)
# output false (0)

# input For this compound, state the assay outcome: CC(=O)Nc1cccc(Cl)c1C
# output false (0)

# input For this compound, state the assay outcome: O=S(=O)(O)c1ccc(O)c2ccccc12
# output false (0)

# input For this compound, state the assay outcome: C=CCOC(=O)C(=O)OCC=C
# output false (0)

# input For this compound, state the assay outcome: CC12CC3CC1C(C(=O)O2)C3C(=O)O (stereo not given)
# output false (0)

# input For this compound, state the assay outcome: COC1=CC(=O)c2nc(Cl)ccc2C1=O
# output false (0)

# input For this compound, state the assay outcome: COc1cc2cc(OC(C)=O)c3cc4c(cc3c2c(OC)c1OC)OCO4
# output false (0)

# input For this compound, state the assay outcome: O=[N+]([O-])c1ccc(N=Nc2ccc(O)c3ccccc23)cc1
# output false (0)

# input For this compound, state the assay outcome: c1ccc2c(N3CCCCC3)ncnc2c1
# output false (0)

# input For this compound, state the assay outcome: Cc1c(O)cccc1O
# output false (0)

# input For this compound, state the assay outcome: CCc1ccc(/C(C#N)=C/C=C/c2ccccc2)cc1
# output true (1)
